IC50 values by entry
target: BRD4 (Homo sapiens, UniProt O60885); experiment: biochemical; format: binding; conditions: one of the FRET assays described; read-out: FRET BRD4 IC50

[
  {
    "COMPOUND": "Cc1nnn(C)c1-c1ccc2c3ncc(S(C)(=O)=O)cc3n([C@H](c3ccccc3)C3CCOCC3)c2c1",
    "IC50": "< 5 nM"
  },
  {
    "COMPOUND": "Cc1nnn(C)c1-c1cc2c(cc1F)c1ncc(C(C)(C)O)cc1n2C(c1ccc(F)cn1)C1CCOCC1 (single isomer, unassigned) [Example 70]",
    "IC50": "< 5 nM"
  },
  {
    "COMPOUND": "Cc1nnn(C)c1-c1cc2c(cc1F)c1ncc(S(C)(=O)=O)cc1n2[C@H](c1ccccc1F)C1CCOCC1",
    "IC50": "< 1 nM"
  },
  {
    "COMPOUND": "Cc1nnn(C)c1-c1cc(Cl)c2c3ncc(C(C)(C)O)cc3n([C@H](c3ccccc3)C3CCOCC3)c2c1",
    "IC50": "< 1 nM"
  },
  {
    "COMPOUND": "[2H]C([2H])([2H])c1nnn(C)c1-c1cc2c(cc1F)c1ncc(C(C)(C)O)cc1n2C(c1ccc(C)cn1)C1CCOCC1 (single isomer, unassigned) [Example 57]",
    "IC50": "< 1500 nM"
  },
  {
    "COMPOUND": "[2H]C([2H])([2H])c1nnn(C)c1-c1cc2c(cc1F)c1ncc(C(C)(C)O)cc1n2C(CCC)c1ccccn1 (single isomer, unassigned) [Example 48]",
    "IC50": "< 1500 nM"
  },
  {
    "COMPOUND": "[2H]C([2H])([2H])c1nnn(C)c1-c1cc2c(cc1F)c1ncc(C(C)(C)O)cc1n2C(C1=CCCOC1)c1ccccc1 (racemic)",
    "IC50": "< 5 nM"
  },
  {
    "COMPOUND": "[2H]C([2H])([2H])c1nnn(C)c1-c1ccc2c3ncc(C(C)(C)O)cc3n(C(c3ncccc3F)C3CCOCC3)c2c1F (single isomer, unassigned) [Example 85]",
    "IC50": "< 5 nM"
  },
  {
    "COMPOUND": "[2H]C([2H])([2H])c1nnn(C)c1-c1ccc2c3ncc(C(C)(C)O)cc3n(C(c3cc(C)on3)C3CCOCC3)c2c1 (single isomer, unassigned) [Example 74]",
    "IC50": "< 1500 nM"
  },
  {
    "COMPOUND": "[2H]C([2H])([2H])c1nnn(C)c1-c1cc2c(cc1F)c1ncc(C(C)(C)O)cc1n2C(c1cc(F)ccn1)C1CCOCC1 (racemic)",
    "IC50": "< 5 nM"
  },
  {
    "COMPOUND": "Cc1nnn(C)c1-c1cc2c(cc1F)c1ncc(C(C)(C)O)cc1n2[C@H](c1ccccc1F)C1CCOCC1",
    "IC50": "< 1 nM"
  },
  {
    "COMPOUND": "[2H]C([2H])([2H])c1nnn(C)c1-c1cc2c(cc1F)c1ncc(C(C)(C)O)cc1n2[C@H](c1ccccc1)C1CCOCC1",
    "IC50": "< 1 nM"
  }
]

---

molecular target: BRD4 (Homo sapiens, UniProt O60885); assay: biochemical; type: binding; conditions: one of the FRET assays described; read-out: FRET BRD4 IC50
pIC50: −log10 of the molar value.

[
  {
    "MOLECULE": "[2H]C([2H])([2H])c1nnn(C)c1-c1ccc2c3ncc(S(C)(=O)=O)cc3n([C@H](c3ccccc3)C3CCOCC3)c2c1 [Example 27]",
    "pIC50": "> 8.30"
  },
  {
    "MOLECULE": "Cc1noc(C)c1-c1ccc2c3ncc(C(C)(C)O)cc3n([C@H](c3ccccc3F)C3CCOCC3)c2c1 [Example 15]",
    "pIC50": "> 8.30"
  },
  {
    "MOLECULE": "[2H]C([2H])([2H])c1nnn(C)c1-c1cc2c(cc1F)c1ncc(C(C)(C)O)cc1n2C(c1cc(C)on1)C1CCOCC1 (stereo not drawn) [Example 35]",
    "pIC50": "> 5.82"
  },
  {
    "MOLECULE": "[2H]C([2H])([2H])c1nnn(C)c1-c1cc2c(cc1F)c1ncc(C(C)(C)O)cc1n2C(c1ccccc1)C1(C)COC1 (single isomer, unassigned) [Example 65]",
    "pIC50": "> 5.82"
  },
  {
    "MOLECULE": "[2H]C([2H])([2H])c1nnn(C)c1-c1cc2c(cc1F)c1ncc(C(C)(C)O)cc1n2C(c1ncccn1)C1CCOCC1 (single isomer, unassigned) [Example 46]",
    "pIC50": "> 8.30"
  },
  {
    "MOLECULE": "Cc1nnn(C)c1-c1cc2c(cc1F)c1ncc(C(C)(C)O)cc1n2C(c1ccc(F)cn1)C1CCOCC1 (single isomer, unassigned) [Example 69]",
    "pIC50": "> 5.82"
  }
]

---

target: UniProtKB O60885; assay: biochemical; type: binding; conditions: one of the FRET assays described; read-out: FRET BRD4 IC50

[
  {
    "COMPOUND": "[2H]C([2H])([2H])c1nnn(C)c1-c1cc2c(cc1F)c1ncc(C(C)(C)O)cc1n2C(c1ccc(C)cn1)C1CCOCC1 (single isomer, unassigned) [Example 56]",
    "IC50": "< 5 nM"
  },
  {
    "COMPOUND": "[2H]C([2H])([2H])c1onc(C)c1-c1cc2c(cc1F)c1ncc(C(C)(C)O)cc1n2[C@H](c1ccccc1)C1CCOCC1 [Example 33]",
    "IC50": "< 1 nM"
  },
  {
    "COMPOUND": "CCCC(CCC)n1c2cc(-c3c(C)nnn3C)ccc2c2ncc(C(C)(C)O)cc21 [Example 5]",
    "IC50": "< 5 nM"
  }
]

---

pIC50 values, listed per item
target: BRD4 (Homo sapiens); experiment: biochemical; format: binding; conditions: one of the FRET assays described; read-out: FRET BRD4 IC50
pIC50: −log10 of the molar value.

[
  {
    "COMPOUND": "[2H]C([2H])([2H])c1nnn(C)c1-c1cc2c(cc1Cl)c1ncc(C(C)(C)O)cc1n2C(c1ncccc1F)C1CCOCC1 (single isomer, unassigned) [Example 76]",
    "TARGET OF ASSAY": "BRD4 (Homo sapiens)",
    "pIC50": "> 5.82"
  },
  {
    "COMPOUND": "[2H]C([2H])([2H])c1nnn(C)c1-c1cc2c(cc1F)c1ncc(C(C)(C)O)cc1n2C(c1ncccc1F)C1CCOCC1 (centres unmarked) [Example 30]",
    "TARGET OF ASSAY": "BRD4 (Homo sapiens)",
    "pIC50": "> 9.00"
  },
  {
    "COMPOUND": "[2H]C([2H])([2H])c1nnn(C)c1-c1cc2c(cc1F)c1ncc(C(C)(C)O)cc1n2C(c1cc(OC)ccn1)C1CCOCC1 (single isomer, unassigned) [Example 50]",
    "TARGET OF ASSAY": "BRD4 (Homo sapiens)",
    "pIC50": "> 8.30"
  },
  {
    "COMPOUND": "[2H]C([2H])([2H])c1nnn(C)c1-c1cc2c(cc1F)c1ncc(C(C)(C)O)cc1n2C(c1ccc(F)cn1)C1CCOCC1 (single isomer, unassigned) [Example 45]",
    "TARGET OF ASSAY": "BRD4 (Homo sapiens)",
    "pIC50": "> 8.30"
  },
  {
    "COMPOUND": "[2H]C([2H])([2H])c1nnn(C)c1-c1cc2c(cc1Cl)c1ncc(C(C)(C)O)cc1n2C(c1cc(C)on1)C1CCOCC1 (single isomer, unassigned) [Example 79]",
    "TARGET OF ASSAY": "BRD4 (Homo sapiens)",
    "pIC50": "> 5.82"
  }
]

---

target: BRD4 (Homo sapiens, UniProt O60885); assay: biochemical; type: binding; settings: one of the FRET assays described; read-out: FRET BRD4 IC50
pIC50: −log10 of the molar value.
// reported pIC50 per item

[
  {
    "COMPOUND": "Cc1nnn(C)c1-c1cc(F)c2c3ncc(C(C)(C)O)cc3n([C@H](c3ccccc3)C3CCOCC3)c2c1",
    "pIC50": "> 9.00"
  },
  {
    "COMPOUND": "Cc1ccc2c(n1)c1c(C(N)=O)cc(-c3c(C)noc3C)cc1n2Cc1ccccc1",
    "pIC50": "> 5.82"
  },
  {
    "COMPOUND": "Cc1nnn(C)c1-c1ccc2c3ncc(C(C)(C)O)cc3n(C(CCC(F)(F)F)c3ccccn3)c2c1 (single isomer, unassigned) [Example 6]",
    "pIC50": "> 8.30"
  },
  {
    "COMPOUND": "[2H]C([2H])([2H])c1nnn(C)c1-c1cc2c(cc1F)c1ncc(C(C)(C)O)cc1n2[C@H](c1ccccc1F)C1CCOCC1",
    "pIC50": "> 9.00"
  },
  {
    "COMPOUND": "[2H]C([2H])([2H])c1nnn(C)c1-c1cc2c(cc1Cl)c1ncc(C(C)(C)O)cc1n2C(c1cc(C)on1)C1CCOCC1 (single isomer, unassigned) [Example 78]",
    "pIC50": "> 5.82"
  },
  {
    "COMPOUND": "[2H]C([2H])([2H])c1nnn(C)c1-c1cc2c(cc1F)c1ncc(C(C)(C)O)cc1n2C(c1ncccc1OC)C1CCOCC1 (single isomer, unassigned) [Example 41]",
    "pIC50": "> 8.30"
  },
  {
    "COMPOUND": "[2H]C([2H])([2H])c1nnn(C)c1-c1cc2c(cc1F)c1ncc(C(C)(C)O)cc1n2C(c1ccccc1)C1(C)COC1 (single isomer, unassigned) [Example 64]",
    "pIC50": "> 8.30"
  },
  {
    "COMPOUND": "[2H]C([2H])([2H])c1nnn(C)c1-c1cc2c(cc1F)c1ncc(C(C)(C)O)cc1n2C(c1cc(C)ccn1)C1CCOCC1 (single isomer, unassigned) [Example 53]",
    "pIC50": "> 5.82"
  },
  {
    "COMPOUND": "[2H]C([2H])([2H])c1nnn(C)c1-c1cc2c(cc1F)c1ncc(C(C)(C)O)cc1n2C(c1ncccc1C)C1CCOCC1 (single isomer, unassigned) [Example 43]",
    "pIC50": "> 8.30"
  },
  {
    "COMPOUND": "Cc1nnn(C)c1-c1ccc2c3ncc(C(C)(C)O)cc3n(C(CCC(F)(F)F)c3ccccn3)c2c1 (single isomer, unassigned) [Example 7]",
    "pIC50": "> 8.30"
  },
  {
    "COMPOUND": "[2H]C([2H])([2H])c1nnn(C)c1-c1cc2c(cc1F)c1ncc(C(C)(C)O)cc1n2C(c1cc(C)on1)C1CCOCC1 (stereo not drawn) [Example 34]",
    "pIC50": "> 9.00"
  },
  {
    "COMPOUND": "[2H]C([2H])([2H])c1nnn(C)c1-c1cc2c(cc1F)c1ncc(C(C)(C)O)cc1n2C(c1ccc(F)cn1)C1CCOCC1 (single isomer, unassigned) [Example 44]",
    "pIC50": "> 5.82"
  }
]
